B1: glmS ribozyme (parent)
chain: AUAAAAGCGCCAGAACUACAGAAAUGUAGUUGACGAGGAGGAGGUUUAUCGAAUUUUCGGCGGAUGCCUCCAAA

Variants of: B1
run-description: self-cleavage kobs at 40 uM GlcN6P; higher = faster cleavage; RNA array
condition: with glucosamine-6-phosphate
This sample holds only a part of the variants without activity.
recorded-endpoint: self-cleavage kobs at 40 uM GlcN6P

Example entries begin here.
AUAAAGGCGCCAGGACUACAGAAAUGUACUUGACGAGAGAGUGGUUUAUCGAACUAUCGCCGGAUGCCUCCAAA [A6G A14G G29C G38A A39G G40A A42U U54C U56A G60C] | < 1e-05 s⁻¹
AUAAAAGCGACAGAACUACAGAAAUGUAGUUGAGGAGGAGGGGGUUUAUCGAAUUUUCGGCGGAUGCCUGCAAA [C10A C34G A42G C70G] | < 1e-05 s⁻¹
AUAAAAGCGCCAGGACUACAGAAAUGUAGUUGACGAGGAGGAGGUGUAUCGAAUUUUCGGCGGAUGCCUCCAAA [A14G U46G] | 0.000421 s⁻¹
AUAAAAGCGCCAGAACUACAGAAAUGUAGUUGACGAGUAGGAGGUUUAUCGAAUUUUCGGCGGAUGCCUUGAAA [G38U C70U C71G] | 8.76e-05 s⁻¹
AUAAAAGUGCCAUAACUACAGAAAUGUAGUUGACGAGGAGGAGGUUUAUCGAAUUUUCGGCGGAUGCCUCCAAA [C8U G13U] | < 1e-05 s⁻¹

Can you share its self-cleavage kobs at 40 uM GlcN6P? I mean this variant: AUAAAAGCGCCAGAACUACAGAAAUGUAGUUGACGAGGUGGAGGUUUAUCGAAUUGUCGGCGGAUGCCUCCAAA [A39U U56G]
0.000177 s⁻¹

Proceed to AUAAAAGAGCCAGAACUACAGAAAUGUAGUAGACGAGGAGGAGGUUUAUGGAUUUUUCGGCGGAUGCCUACAAA [C8A U31A C50G A53U C70A]
0.000306 s⁻¹

Proceed to AUAAAAGCGCCAGAACUACAGAAAUGUAGUUGAGGAUCAGGAGGUUGAUCGAAUUCUCGGCGGAUGCCUCCAAA [C34G G37U G38C U47G U56C]
< 1e-05 s⁻¹
